Measurement protocol: Oral bioavailability in rat
Assay type: ADME, organism-based
Cond: in vivo
Measurement type: bioavailability (%)
State the answer as a number, implicitly in %.

Consider the molecule "O=C(O)C[C@H]1CCc2c1[nH]c1ccc(OCc3ccc(C4CCCC4)c(C(F)(F)F)c3)cc21" and give its recorded bioavailability.
54

====

Target sequence: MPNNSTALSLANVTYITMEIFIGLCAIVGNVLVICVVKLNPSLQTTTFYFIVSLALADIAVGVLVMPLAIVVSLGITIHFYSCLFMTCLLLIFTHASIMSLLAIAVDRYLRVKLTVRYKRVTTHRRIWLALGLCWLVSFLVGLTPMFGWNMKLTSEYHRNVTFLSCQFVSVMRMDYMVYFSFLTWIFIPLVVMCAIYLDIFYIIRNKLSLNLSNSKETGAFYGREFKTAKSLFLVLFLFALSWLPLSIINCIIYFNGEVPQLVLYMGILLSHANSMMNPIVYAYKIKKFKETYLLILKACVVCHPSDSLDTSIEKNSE
Measurement type: IC50 (µM)
Unit µM implied. Number only.

Please list IC50 recorded for the compound "O=C(O)C[C@H]1CCc2c1[nH]c1ccc(OCc3ccc(C4CCCC4)c(C(F)(F)F)c3)cc21"
3.3

====

Target under test: Cytochrome P450 2C19 (Homo sapiens)
Sequence (P33261 whole entry): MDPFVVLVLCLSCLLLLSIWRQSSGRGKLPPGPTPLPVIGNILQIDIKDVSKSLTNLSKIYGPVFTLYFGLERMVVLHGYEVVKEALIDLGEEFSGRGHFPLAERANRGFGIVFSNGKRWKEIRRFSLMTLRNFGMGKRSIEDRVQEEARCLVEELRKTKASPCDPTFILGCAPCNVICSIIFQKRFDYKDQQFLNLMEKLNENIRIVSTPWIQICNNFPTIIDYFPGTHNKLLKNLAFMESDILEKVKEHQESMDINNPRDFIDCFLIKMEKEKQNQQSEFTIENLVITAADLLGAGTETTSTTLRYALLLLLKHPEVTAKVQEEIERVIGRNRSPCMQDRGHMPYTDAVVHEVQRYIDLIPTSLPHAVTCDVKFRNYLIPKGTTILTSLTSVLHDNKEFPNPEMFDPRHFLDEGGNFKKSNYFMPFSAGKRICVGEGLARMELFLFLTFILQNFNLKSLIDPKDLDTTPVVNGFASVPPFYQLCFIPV
Measurement type: IC50

Fetch value of IC50 on Cytochrome P450 2C19 (Homo sapiens) for "O=C(O)C[C@H]1CCc2c1[nH]c1ccc(OCc3ccc(C4CCCC4)c(C(F)(F)F)c3)cc21" .
> 50 µM

====

Measurement protocol: Tmax in monkey at 1 mg/kg, iv or 3 mg/kg, po
Assay type: ADME, organism-based, Macaca mulatta
Cond: rhesus monkey, in vivo
Measurement type: Tmax (h)
Numeric only. Scale: h

Using known records, supply Tmax for "O=C(O)C[C@H]1CCc2c1[nH]c1ccc(OCc3ccc(C4CCCC4)c(C(F)(F)F)c3)cc21"
3.33

====

Measurement protocol: Ratio of drug level in brain to plasma of Sprague-Dawley rat at 14.5 ug/hr/kg dosed as constant infusion measured after 48 hrs
Assay type: ADME, organism-based
Cond: iv, read-out: BPR
Measurement type: Kp at 48 h
# print the numeric value only

Report Kp at 48 h for O=C(O)C[C@H]1CCc2c1[nH]c1ccc(OCc3ccc(C4CCCC4)c(C(F)(F)F)c3)cc21 [ETRASIMOD]
1.9

====

Test system: Canis familiaris
Measurement protocol: Reduction in peripheral lymphocyte count in orally dosed dog measured after 24 hrs
Type: ADME, organism-based
Cond: Canis lupus familiaris
Measurement type: IC50 (nM)
Give the value in nM but do not write nM after it.

Please report IC50 with Canis familiaris for item "O=C(O)C[C@H]1CCc2c1[nH]c1ccc(OCc3ccc(C4CCCC4)c(C(F)(F)F)c3)cc21" .
58

====

Target under test: UniProtKB P08684
Sequence (P08684 whole entry): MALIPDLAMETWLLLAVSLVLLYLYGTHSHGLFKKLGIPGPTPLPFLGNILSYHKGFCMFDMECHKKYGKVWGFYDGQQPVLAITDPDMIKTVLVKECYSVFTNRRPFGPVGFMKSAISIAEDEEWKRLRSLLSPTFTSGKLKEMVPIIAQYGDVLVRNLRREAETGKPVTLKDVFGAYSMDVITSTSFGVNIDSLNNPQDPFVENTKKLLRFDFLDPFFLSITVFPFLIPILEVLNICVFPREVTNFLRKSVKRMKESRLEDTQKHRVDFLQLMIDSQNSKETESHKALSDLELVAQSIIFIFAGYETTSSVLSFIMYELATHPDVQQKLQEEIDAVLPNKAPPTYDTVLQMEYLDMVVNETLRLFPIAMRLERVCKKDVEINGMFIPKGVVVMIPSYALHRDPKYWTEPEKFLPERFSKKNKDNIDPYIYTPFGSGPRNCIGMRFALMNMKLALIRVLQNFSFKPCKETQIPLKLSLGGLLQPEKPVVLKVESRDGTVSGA
Measurement type: IC50

Using the record for "O=C(O)C[C@H]1CCc2c1[nH]c1ccc(OCc3ccc(C4CCCC4)c(C(F)(F)F)c3)cc21" , state its measured IC50.
> 50 µM

====

Measurement protocol: Half life in dog liver microsomes
Assay type: ADME, Canis lupus familiaris
Measurement type: half-life

Return half-life for the following compound: "O=C(O)C[C@H]1CCc2c1[nH]c1ccc(OCc3ccc(C4CCCC4)c(C(F)(F)F)c3)cc21"
> 1 h

====

Measurement protocol: Cmax in Sprague-Dawley rat at 300 mg/kg
Format: ADME, organism-based
Parameters: dose 300 mg/kg
Cond: in vivo
Measurement type: Cmax (µM)
The reply should contain only the number, in µM.

Fill in reported Cmax for this entry: O=C(O)C[C@H]1CCc2c1[nH]c1ccc(OCc3ccc(C4CCCC4)c(C(F)(F)F)c3)cc21 [ETRASIMOD]
136

====

Measurement protocol: Cmax in monkey at 1 mg/kg, iv or 3 mg/kg, po
Format: ADME, organism-based, Macaca mulatta
Cond: rhesus monkey, in vivo
Measurement type: Cmax (ng/mL)
Output spec: scalar in ng/mL, unitless text.

Specify Cmax for "O=C(O)C[C@H]1CCc2c1[nH]c1ccc(OCc3ccc(C4CCCC4)c(C(F)(F)F)c3)cc21" and stop.
2870

====

Measurement protocol: Cmax in rat at 1 mg/kg, iv or 1 mg/kg, po
Assay type: ADME, organism-based
Cond: in vivo
Measurement type: Cmax (ng/mL)
Report the value in ng/mL with no unit label.

Tell us which Cmax value is on record for "O=C(O)C[C@H]1CCc2c1[nH]c1ccc(OCc3ccc(C4CCCC4)c(C(F)(F)F)c3)cc21"
218

====

Measurement protocol: Tmax in mouse at 1 mg/kg, iv or 1 mg/kg, po
Format: ADME, organism-based
Cond: in vivo
Measurement type: Tmax (h)
Numeric only. Scale: h

Give Tmax for the following compound: O=C(O)C[C@H]1CCc2c1[nH]c1ccc(OCc3ccc(C4CCCC4)c(C(F)(F)F)c3)cc21 [ETRASIMOD]
8

====

Measurement protocol: AUC (0 to infinity) in dog at 1 mg/kg, iv or 3 mg/kg, po
Format: ADME, organism-based, Canis lupus familiaris
Cond: plasma
Measurement type: AUC(0-inf) (µg·h/mL)
Answer format: numeric, µg·h/mL implied, no suffix.

Quote AUC(0-inf) reported for O=C(O)C[C@H]1CCc2c1[nH]c1ccc(OCc3ccc(C4CCCC4)c(C(F)(F)F)c3)cc21 [ETRASIMOD] please.
164

====

Measurement protocol: Cmax in mouse at 1 mg/kg, iv or 1 mg/kg, po
Type: ADME, organism-based
Cond: in vivo
Measurement type: Cmax (ng/mL)
Value expressed in ng/mL; do not type the unit.

Find the measured Cmax of O=C(O)C[C@H]1CCc2c1[nH]c1ccc(OCc3ccc(C4CCCC4)c(C(F)(F)F)c3)cc21 [ETRASIMOD] and report it.
780

====

Measurement protocol: Protein binding in rat plasma
Format: ADME, cell-free
Cond: read-out: PPB (converted)
Measurement type: fraction unbound
When you answer, write just the number.

Identify the reported fraction unbound for the following entry. O=C(O)C[C@H]1CCc2c1[nH]c1ccc(OCc3ccc(C4CCCC4)c(C(F)(F)F)c3)cc21 [ETRASIMOD]
0.02

====

Target under test: Cytochrome P450 2D6 (Homo sapiens)
Sequence (P10635 whole entry): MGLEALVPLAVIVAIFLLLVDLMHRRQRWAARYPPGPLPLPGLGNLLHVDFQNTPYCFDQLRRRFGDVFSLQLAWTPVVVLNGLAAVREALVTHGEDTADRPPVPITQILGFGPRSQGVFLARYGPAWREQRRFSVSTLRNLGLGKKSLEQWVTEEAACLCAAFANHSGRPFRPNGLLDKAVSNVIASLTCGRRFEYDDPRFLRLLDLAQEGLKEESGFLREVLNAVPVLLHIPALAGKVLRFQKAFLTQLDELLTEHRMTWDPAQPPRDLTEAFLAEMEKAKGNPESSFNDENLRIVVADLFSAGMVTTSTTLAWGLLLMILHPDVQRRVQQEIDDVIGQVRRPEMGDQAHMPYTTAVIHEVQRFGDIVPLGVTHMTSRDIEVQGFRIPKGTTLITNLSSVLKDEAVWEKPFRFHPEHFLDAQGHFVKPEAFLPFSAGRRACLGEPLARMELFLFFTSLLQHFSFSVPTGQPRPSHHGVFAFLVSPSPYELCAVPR
Measurement type: IC50

Please report the measured IC50 for "O=C(O)C[C@H]1CCc2c1[nH]c1ccc(OCc3ccc(C4CCCC4)c(C(F)(F)F)c3)cc21" tested on Cytochrome P450 2D6 (Homo sapiens).
> 50 µM

====

Target under test: Voltage-gated inwardly rectifying potassium channel KCNH2 (Homo sapiens, UniProt Q12809)
Sequence (Q12809 whole entry): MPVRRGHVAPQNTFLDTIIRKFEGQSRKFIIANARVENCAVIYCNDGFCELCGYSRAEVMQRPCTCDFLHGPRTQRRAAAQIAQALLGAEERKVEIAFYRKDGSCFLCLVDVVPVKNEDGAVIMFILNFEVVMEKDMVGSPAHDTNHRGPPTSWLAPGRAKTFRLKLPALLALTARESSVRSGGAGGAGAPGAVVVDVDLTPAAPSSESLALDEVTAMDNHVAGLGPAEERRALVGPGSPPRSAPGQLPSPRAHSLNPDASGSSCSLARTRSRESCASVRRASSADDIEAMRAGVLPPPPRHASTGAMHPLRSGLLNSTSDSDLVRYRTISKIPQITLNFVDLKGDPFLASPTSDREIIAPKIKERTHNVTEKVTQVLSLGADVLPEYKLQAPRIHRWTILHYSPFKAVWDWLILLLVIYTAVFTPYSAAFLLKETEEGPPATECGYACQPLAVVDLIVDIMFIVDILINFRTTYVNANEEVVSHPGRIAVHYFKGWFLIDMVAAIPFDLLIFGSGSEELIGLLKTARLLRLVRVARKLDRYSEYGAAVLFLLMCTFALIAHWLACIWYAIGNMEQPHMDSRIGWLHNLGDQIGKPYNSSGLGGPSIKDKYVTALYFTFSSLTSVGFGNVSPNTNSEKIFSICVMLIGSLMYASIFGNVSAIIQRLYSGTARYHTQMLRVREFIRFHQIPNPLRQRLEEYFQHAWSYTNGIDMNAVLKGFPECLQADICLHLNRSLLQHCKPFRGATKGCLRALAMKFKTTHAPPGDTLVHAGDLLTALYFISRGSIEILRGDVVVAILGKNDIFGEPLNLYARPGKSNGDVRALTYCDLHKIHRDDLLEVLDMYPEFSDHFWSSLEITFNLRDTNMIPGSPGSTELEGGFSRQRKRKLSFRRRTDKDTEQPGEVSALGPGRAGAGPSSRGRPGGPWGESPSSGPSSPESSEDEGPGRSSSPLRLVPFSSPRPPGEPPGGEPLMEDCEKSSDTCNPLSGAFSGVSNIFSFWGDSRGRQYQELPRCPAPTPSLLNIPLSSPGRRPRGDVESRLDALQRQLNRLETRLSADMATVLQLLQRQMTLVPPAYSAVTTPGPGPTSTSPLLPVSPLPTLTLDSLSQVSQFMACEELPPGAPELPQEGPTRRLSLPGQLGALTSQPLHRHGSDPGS
Measurement protocol: Inhibition of human ERG by patch clamp assay
pIC50: −log10 of the molar value.
Measurement type: pIC50

Entry "O=C(O)C[C@H]1CCc2c1[nH]c1ccc(OCc3ccc(C4CCCC4)c(C(F)(F)F)c3)cc21" needs its pIC50 filled in; supply it.
< 4.52

====

Measurement protocol: Volume of distribution at steady state in monkey at 1 mg/kg, iv
Assay type: ADME, organism-based, Macaca mulatta
Design: dose 1 mg/kg, route intravenous
Cond: rhesus monkey, in vivo, read-out: Vdss
Measurement type: Vd (L/kg)
Your answer is read as L/kg, so omit the unit and give the number.

Read off the recorded Vd for O=C(O)C[C@H]1CCc2c1[nH]c1ccc(OCc3ccc(C4CCCC4)c(C(F)(F)F)c3)cc21 [ETRASIMOD]
0.411

====

Recorded Emax for the following compounds
Target under test: UniProt:P21453
Sequence (P21453 whole entry): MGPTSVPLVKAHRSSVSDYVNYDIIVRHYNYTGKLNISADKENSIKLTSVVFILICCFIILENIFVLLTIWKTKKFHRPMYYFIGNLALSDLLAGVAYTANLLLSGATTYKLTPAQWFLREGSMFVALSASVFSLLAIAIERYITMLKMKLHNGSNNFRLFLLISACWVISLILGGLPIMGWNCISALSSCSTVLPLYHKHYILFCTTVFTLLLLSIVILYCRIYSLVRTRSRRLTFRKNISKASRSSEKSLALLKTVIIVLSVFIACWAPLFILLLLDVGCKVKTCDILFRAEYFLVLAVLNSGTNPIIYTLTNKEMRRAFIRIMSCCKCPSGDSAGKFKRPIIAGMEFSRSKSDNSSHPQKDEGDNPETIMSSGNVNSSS
Measurement protocol: Agonist activity at human S1P1 receptor assessed as cAMP accumulation by HTRF assay relative to S1P
Format: functional
Reply with just the number (in %).

Completed entries (count: 5):
{"Compound": "O=C(O)CC1CCc2c1[nH]c1ccc(OCc3ccc(C4CCC4)c(C(F)(F)F)c3)cc21 (racemic)", "Target under test": "UniProt:P21453", "Emax (%)": 109}
{"Compound": "CC(C)(C)Cc1ccc(COc2ccc3[nH]c4c(c3c2)CCC4CC(=O)O)cc1C(F)(F)F (racemic)", "Target under test": "UniProt:P21453", "Emax (%)": 112}
{"Compound": "O=C(O)CC1CCc2c1[nH]c1ccc(OCc3ccc(Cl)c(C(F)(F)F)c3)cc21 (racemic)", "Target under test": "UniProt:P21453", "Emax (%)": 117}
{"Compound": "N#Cc1cc(COc2ccc3[nH]c4c(c3c2)CCC4CC(=O)O)cc(OC(F)(F)F)c1 (racemic)", "Target under test": "UniProt:P21453", "Emax (%)": 90}
{"Compound": "O=C(O)CC1CCc2c1[nH]c1ccc(OCc3ccc(C4CCCCC4)c(C(F)(F)F)c3)cc21 (racemic)", "Target under test": "UniProt:P21453", "Emax (%)": 96}

Answer with the recorded Emax for the compound listed here: CCCc1ccc(COc2ccc3[nH]c4c(c3c2)CCC4CC(=O)O)cc1C(F)(F)F (racemic)
107

Provide Emax value for the following compound: "O=C(O)C[C@H]1CCc2c1[nH]c1ccc(OCc3ccc(C4CCCC4)c(C(F)(F)F)c3)cc21"
102

Read off the recorded Emax for O=C(O)CC1CCc2c1[nH]c1ccc(OCc3ccc(CC4CCCCC4)c(C(F)(F)F)c3)cc21 (racemic)
111
